# SYSTEM_UNDER_TEST: Phosphatidylinositol 4,5-bisphosphate 3-kinase catalytic subunit gamma isoform (Homo sapiens, UniProt P48736)
# Sequence (P48736 whole entry, looked up, canonical isoform): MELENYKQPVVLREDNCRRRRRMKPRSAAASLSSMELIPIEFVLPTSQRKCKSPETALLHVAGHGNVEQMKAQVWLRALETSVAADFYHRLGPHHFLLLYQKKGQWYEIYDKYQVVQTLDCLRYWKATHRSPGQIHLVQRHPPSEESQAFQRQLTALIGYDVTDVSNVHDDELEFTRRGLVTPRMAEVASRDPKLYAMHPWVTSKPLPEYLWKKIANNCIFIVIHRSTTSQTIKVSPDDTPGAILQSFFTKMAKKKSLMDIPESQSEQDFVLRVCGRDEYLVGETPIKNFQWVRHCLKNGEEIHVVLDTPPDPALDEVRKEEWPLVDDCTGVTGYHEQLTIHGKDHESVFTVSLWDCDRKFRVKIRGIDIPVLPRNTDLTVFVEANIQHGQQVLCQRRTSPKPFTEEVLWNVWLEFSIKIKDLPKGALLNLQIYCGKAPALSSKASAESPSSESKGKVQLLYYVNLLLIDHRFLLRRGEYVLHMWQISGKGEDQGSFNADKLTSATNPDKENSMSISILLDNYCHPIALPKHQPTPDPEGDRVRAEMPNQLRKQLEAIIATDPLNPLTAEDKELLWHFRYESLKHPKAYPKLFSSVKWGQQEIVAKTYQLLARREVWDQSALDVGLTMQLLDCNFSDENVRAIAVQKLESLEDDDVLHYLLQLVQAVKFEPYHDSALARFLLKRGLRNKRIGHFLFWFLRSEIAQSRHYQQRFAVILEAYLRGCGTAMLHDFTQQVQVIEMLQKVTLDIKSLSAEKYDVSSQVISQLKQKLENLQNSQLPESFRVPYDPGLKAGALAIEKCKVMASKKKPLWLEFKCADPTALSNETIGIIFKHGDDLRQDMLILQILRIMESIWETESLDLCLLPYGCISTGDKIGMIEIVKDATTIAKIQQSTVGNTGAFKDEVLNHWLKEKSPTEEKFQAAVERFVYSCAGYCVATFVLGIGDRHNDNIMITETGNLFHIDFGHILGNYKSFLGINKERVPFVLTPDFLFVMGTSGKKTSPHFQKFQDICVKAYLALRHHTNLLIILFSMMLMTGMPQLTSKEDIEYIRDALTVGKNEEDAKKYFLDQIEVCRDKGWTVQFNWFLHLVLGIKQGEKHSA
# MEASUREMENT_DESCRIPTION: Inhibition of PI3K p110gamma by fluorescence based immunoassay
MEASURED_ATTRIBUTE: IC50 (µM)

For orientation, consider the following solved cases.
# STRUCTURE_NOTATION, VAL
measured = [
    ("Cc1n[nH]c(=O)c2c1c1cc(Br)ccc1n2Cc1cccc(C#N)c1", 0.295),
    ("COc1ccc(Cn2c3ccc(Br)cc3c3c(C)n[nH]c(=O)c32)cc1", 5.2),
]

a = Cc1n[nH]c(=O)c2c1c1cc(Br)ccc1n2Cc1cccc([N+](=O)[O-])c1
b = COc1cccc(Cn2c3ccc(Br)cc3c3c(C)n[nH]c(=O)c32)c1
Ask: Smaller IC50 value, a vs b ? Lab log: write the label of the selected item as the result.
Reply: b
(b: 2.2 µM, a: 4.1 µM)

* * *

# Test system: Caco-2
# MEASUREMENT_DESCRIPTION: Antiproliferative activity against human Caco2 cells incubated for 48 hrs by […] dye staining based assay
# Assay type: functional, cell-based
# CONDITIONS: Caco-2, 48 h
MEASURED_ATTRIBUTE: IC50 (nM)

For orientation, consider the following solved cases.
# STRUCTURE_NOTATION, UNITS_OF_MEASURE, VAL
measured = [
    ("Cc1n[nH]c(=O)c2[nH]c3ccc(F)cc3c12", "nM", 4000),
    ("COc1cccc(Cn2c3ccc(OC)cc3c3c(C)n[nH]c(=O)c32)c1", "nM", 2000),
    ("Cc1n[nH]c(=O)c2c1c1cc(F)ccc1n2Cc1cccc([N+](=O)[O-])c1", "nM", 2000),
]

P = Cc1n[nH]c(=O)c2c1c1cc(Br)ccc1n2Cc1ccc(C#N)cc1
Q = COc1ccc2c(c1)c1c(C)n[nH]c(=O)c1n2Cc1ccc([N+](=O)[O-])cc1
Ask: Smaller IC50 value, P vs Q ? Lab log: write the label of the selected item as the result.
Reply: P
(P: 2000 nM, Q: 5000 nM)

P = Oc1cccc(-c2nc(N3CCOCC3)c3oc4ncccc4c3n2)c1
Q = Cc1n[nH]c(=O)c2c1c1cc(F)ccc1n2Cc1cccc(C#N)c1
Ask: Smaller IC50 value, P vs Q ? Lab log: write the label of the selected item as the result.
Reply: P

A = COc1ccc2c(c1)c1c(C)n[nH]c(=O)c1n2Cc1cccc(C#N)c1
B = Cc1n[nH]c(=O)c2c1c1cc(Br)ccc1n2Cc1ccc([N+](=O)[O-])cc1
Ask: Smaller IC50 value, A vs B ? Lab log: write the label of the selected item as the result.
Reply: B
